TARGET_SYSTEM: T1, mouse PRLR on HEK293/mPRLR cells (Mus musculus, UniProt Q08501)
T1 construct: HA; expressed in transfected cells; host or cells: HEK293
T1 sequence (Q08501 20-608): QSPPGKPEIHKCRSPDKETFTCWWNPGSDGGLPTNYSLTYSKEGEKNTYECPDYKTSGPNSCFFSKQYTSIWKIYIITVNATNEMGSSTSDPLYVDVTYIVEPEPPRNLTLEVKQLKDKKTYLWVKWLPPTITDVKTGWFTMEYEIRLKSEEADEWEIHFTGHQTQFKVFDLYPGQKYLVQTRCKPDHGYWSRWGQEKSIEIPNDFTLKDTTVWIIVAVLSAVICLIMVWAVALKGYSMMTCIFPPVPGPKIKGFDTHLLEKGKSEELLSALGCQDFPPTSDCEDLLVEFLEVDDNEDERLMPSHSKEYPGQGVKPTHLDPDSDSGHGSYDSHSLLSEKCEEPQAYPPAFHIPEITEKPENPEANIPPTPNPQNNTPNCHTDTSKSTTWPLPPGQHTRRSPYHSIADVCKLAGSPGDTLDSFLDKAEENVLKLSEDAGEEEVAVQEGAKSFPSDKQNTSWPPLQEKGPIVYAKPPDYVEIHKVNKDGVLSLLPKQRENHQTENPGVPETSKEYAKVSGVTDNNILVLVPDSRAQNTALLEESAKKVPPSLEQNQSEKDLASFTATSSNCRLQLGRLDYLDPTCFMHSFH
ASSAY_PROTOCOL: FACS cell surface binding
ENDPOINT_NAME: FACS Cell Binding (Fold Above Background)
Write the answer as a number in Fold Above Background, unit excluded.

{"columns": ["MOLECULE", "DISPLAY_UNIT", "FACS Cell Binding"],
 "data": [
  ["H1H6792P: fully human anti-PRLR antibody, human IgG1 Fc; HCVR/LCVR SEQ ID NOs 130/138 (antibody, V domains shown) VH: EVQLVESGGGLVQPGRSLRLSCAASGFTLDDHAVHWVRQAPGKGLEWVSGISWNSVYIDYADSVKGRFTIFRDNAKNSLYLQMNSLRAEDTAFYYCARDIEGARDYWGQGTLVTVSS VL: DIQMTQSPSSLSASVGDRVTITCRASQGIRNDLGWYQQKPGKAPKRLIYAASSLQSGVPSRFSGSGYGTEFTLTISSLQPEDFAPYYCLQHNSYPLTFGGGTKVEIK", "Fold Above Background", 3]
]}

Looking up H1H6795P: fully human anti-PRLR antibody, human IgG1 Fc; HCVR/LCVR SEQ ID NOs 162/170 (antibody, V domains shown) VH: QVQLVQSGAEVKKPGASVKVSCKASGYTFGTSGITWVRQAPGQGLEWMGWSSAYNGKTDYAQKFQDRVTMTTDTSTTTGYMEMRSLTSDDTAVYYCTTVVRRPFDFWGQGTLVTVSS VL: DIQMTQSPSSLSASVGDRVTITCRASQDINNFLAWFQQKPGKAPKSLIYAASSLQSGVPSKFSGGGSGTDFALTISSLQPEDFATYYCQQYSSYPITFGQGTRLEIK , I see its FACS Cell Binding listed as 1
